B1: Osa-1-4 twister ribozyme (parent)
chain: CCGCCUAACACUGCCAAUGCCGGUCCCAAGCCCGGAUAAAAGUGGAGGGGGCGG

- Variants of: B1
- assay-procedure: self-cleavage, relative activity (ratio to wild type); higher = more cleavage; co-transcriptional
Please mark 1 if the recorded self-cleavage is equal to or greater than 0.1, and -1 if it falls below.

Some solved entries appear below for comparison.
mutant-id	class
A16G U18C	1
C33U G35C	-1
C33U G54C	1
A38U C27G	-1
A36G G34U	1
A28U A7G	1
G19C G51A	-1
C14U C27U	-1

Does self-cleavage meet or surpass 0.1 for C25U G35A ?
1

Where these numbers come from: the RNAGym collection of RNA variant scans (doi:10.1002/anie.201605470)
